METHOD_NOTES: relative permittivity at various frequencies (dimensionless)
MEASUREMENT_CONDITIONS: 298.2 K; 101.33 kPa; Liquid; Frequency=0.1 MHz
OBSERVATION_TYPE: relative permittivity
// return a plain number; no unit text

Solved cases below.
{"COMPOUND": "CC(O)C(C)O (centres undefined)", "relative permittivity": 21.282}
{"COMPOUND": "OCCCCO", "relative permittivity": 31.539}
{"COMPOUND": "CC(O)CCO (centres undefined)", "relative permittivity": 28.692}

Shifting focus to the compound that follows.
IN: Which relative permittivity reading was recorded for the compound CCCCC(CC)CO (centres undefined) ?
OUT: 7.611

---

relative permittivity reference
METHOD_NOTES: relative permittivity at various frequencies (dimensionless); xn = mol fraction of the nth substance listed
MEASUREMENT_CONDITIONS: 298.2 K; 101.33 kPa; Liquid; Frequency=0.1 MHz; Parallel plate capacitor; x1 = 0.6
// return a plain number; no unit text

Solved cases below.
{"COMPOUND": "CC(O)CCO (centres undefined) [1,3-butanediol] + C1COCCO1", "OBSERVATION_TYPE": "relative permittivity", "NUMERIC_READOUT": 13.528}
{"COMPOUND": "CC(O)CCO (centres undefined) [1,3-butanediol] + CCCCC(CC)CO", "OBSERVATION_TYPE": "relative permittivity", "NUMERIC_READOUT": 17.255}
{"COMPOUND": "CC(O)C(C)O (centres undefined) [2,3-butanediol] + C1COCCO1", "OBSERVATION_TYPE": "relative permittivity", "NUMERIC_READOUT": 10.205}

Shifting focus to the compound that follows.
IN: Which relative permittivity reading was recorded for the compound OCCCCO [1,4-butanediol] + C1COCCO1 ?
OUT: 14.491

---

METHOD_NOTES: refractive index (Na D-line) (dimensionless); xn = mol fraction of the nth substance listed
MEASUREMENT_CONDITIONS: 298.2 K; 101 kPa; Liquid; Standard Abbe refractometry; x1 = 0.9
refractive index reference
// return a plain number; no unit text

Solved cases below.
{"COMPOUND": "CC(O)CCO (centres undefined) [1,3-butanediol] + CCCCC(CC)CO", "refractive index": 1.4367}
{"COMPOUND": "CC(O)C(C)O (centres undefined) [2,3-butanediol] + C1COCCO1", "refractive index": 1.433}
{"COMPOUND": "CC(O)CCO (centres undefined) [1,3-butanediol] + C1COCCO1", "refractive index": 1.4362}

Shifting focus to the compound that follows.
IN: Which refractive index reading was recorded for the compound OCCCCO [1,4-butanediol] + C1COCCO1 ?
OUT: 1.4418

---

MEASUREMENT_CONDITIONS: 298.2 K; 101 kPa; Liquid; Vibrating tube method
OBSERVATION_TYPE: mass density (kg/m3)
# number only, unit kg/m3 dropped from output

Solved cases below.
{"COMPOUND": "CC(O)C(C)O (centres undefined) [2,3-butanediol]", "OBSERVATION_TYPE": "mass density", "UNITS_TEXT": "kg/m3", "NUMERIC_READOUT": 994.31}
{"COMPOUND": "CCCCC(CC)CO (centres undefined) [2-ethyl-1-hexanol]", "OBSERVATION_TYPE": "mass density", "UNITS_TEXT": "kg/m3", "NUMERIC_READOUT": 830.62}
{"COMPOUND": "CC(O)CCO (centres undefined) [1,3-butanediol]", "OBSERVATION_TYPE": "mass density", "UNITS_TEXT": "kg/m3", "NUMERIC_READOUT": 1001.22}

Shifting focus to the compound that follows.
IN: Which mass density reading was recorded for the compound OCCCCO [1,4-butanediol] ?
OUT: 1013.45

---

METHOD_NOTES: refractive index (Na D-line) (dimensionless)
MEASUREMENT_CONDITIONS: 298.2 K; 101.33 kPa; Liquid; Standard Abbe refractometry
OBSERVATION_TYPE: refractive index
// return a plain number; no unit text

{"MOLECULE": "CC(O)CCO (centres undefined) [1,3-butanediol]", "refractive index": 1.4383}
{"MOLECULE": "CCCCC(CC)CO (centres undefined) [2-ethyl-1-hexanol]", "refractive index": 1.4293}

IN: Which refractive index reading was recorded for the molecule OCCCCO [1,4-butanediol] ?
OUT: 1.4447

IN: Which refractive index reading was recorded for the molecule CC(O)C(C)O (centres undefined) [2,3-butanediol] ?
OUT: 1.4348

---

METHOD_NOTES: relative permittivity at various frequencies (dimensionless); xn = mol fraction of the nth substance listed
MEASUREMENT_CONDITIONS: 298.2 K; 101.33 kPa; Liquid; Frequency=0.1 MHz; Parallel plate capacitor; x1 = 0.9
OBSERVATION_TYPE: relative permittivity
// return a plain number; no unit text

{"MOLECULE": "OCCCCO [1,4-butanediol] + C1COCCO1", "relative permittivity": 26.541}
{"MOLECULE": "CC(O)CCO (centres undefined) [1,3-butanediol] + CCCCC(CC)CO", "relative permittivity": 25.228}
{"MOLECULE": "CC(O)C(C)O (centres undefined) [2,3-butanediol] + C1COCCO1", "relative permittivity": 18.397}

IN: Which relative permittivity reading was recorded for the molecule CC(O)CCO (centres undefined) [1,3-butanediol] + C1COCCO1 ?
OUT: 24.335

---

refractive index reference
METHOD_NOTES: refractive index (Na D-line) (dimensionless); xn = mol fraction of the nth substance listed
MEASUREMENT_CONDITIONS: 298.2 K; 101 kPa; Liquid; Standard Abbe refractometry; x1 = 0.6
± gives the expanded uncertainty stated by the source.

{"COMPOUND": "OCCCCO [1,4-butanediol] + C1COCCO1", "refractive index": "1.434 ± 0.001"}
{"COMPOUND": "CC(O)CCO (centres undefined) [1,3-butanediol] + CCCCC(CC)CO", "refractive index": "1.4329 ± 0.0005"}

IN: Which refractive index reading was recorded for the compound CC(O)C(C)O (centres undefined) [2,3-butanediol] + C1COCCO1 ?
OUT: 1.4281 ± 0.0005

IN: Which refractive index reading was recorded for the compound CC(O)CCO (centres undefined) [1,3-butanediol] + C1COCCO1 ?
OUT: 1.4301 ± 0.0005
